Test: Relative inhibition of rat kidney PDE4 and human platelet PDE 5
MEASUREMENT_TYPE: Selectivity ratio

# COMPOUND_STRING, Selectivity ratio
rows = [
    ("CCOC(=O)c1cnc2c(CC)cc(C#N)cc2c1NCc1ccc(OC)c(Cl)c1", "> 100000"),
    ("CCOC(=O)c1cnc2cc(C(F)(F)F)ccc2c1NCc1ccc(OC)c(Cl)c1", "> 310"),
]

Now consider a different compound.
So, CCc1cc(C#N)cc2c(NCc3ccc(OC)c(Cl)c3)c(C(=O)NCc3ccccn3)cnc12 ? Its Selectivity ratio was 4500

----------
Assay: Relative inhibition of rat kidney PDE2 and human platelet PDE 5
Entries and their measured Selectivity ratio follow.

A selection of reference data follows.
# COMPOUND_STRING, Selectivity ratio
measured = [
    ("COc1ccc(CNc2ccnc3ccc(C#N)cc23)cc1Cl", "> 100000"),
    ("CCOC(=O)c1cnc2ccc(C#N)cc2c1NCc1ccc(OC)c(Cl)c1", "> 100000"),
    ("CCOC(=O)c1cnc2cc(C(F)(F)F)ccc2c1NCc1ccc(OC)c(Cl)c1", "> 310"),
    ("CCOC(=O)c1cnc2ccc(C(F)(F)F)cc2c1NCc1ccc(OC)c(Cl)c1", "> 680"),
    ("COc1ccc(CNc2c(CO)cnc3ccc(C#N)cc23)cc1Cl", 8600),
    ("CCc1cc(C#N)cc2c(NCc3ccc(OC)c(Cl)c3)c(CO)cnc12", "> 100000"),
]

Note to self: Selectivity ratio recorded for CCOC(=O)c1cnc2c(CC)cc(C#N)cc2c1NCc1ccc(OC)c(Cl)c1 was > 100000

So, COc1ccc(CNc2c(C(=O)NCc3ccccn3)cnc3ccc(C#N)cc23)cc1Cl ? Its Selectivity ratio was > 100000

----------
Experiment: Relative inhibition of bovine retina PDE6 and human platelet PDE 5
The following compounds are listed with their measured Selectivity ratio values.

# COMPOUND_STRING, RESULT
measured = [
    ("CCOC(=O)c1cnc2ccc(C#N)cc2c1NCc1ccc(OC)c(Cl)c1", 15),
]

get_value(item= COc1ccc(CNc2c(C(=O)NCc3ccccn3)cnc3ccc(C#N)cc23)cc1Cl , readout=Selectivity ratio) returns 64

Note to self: Selectivity ratio recorded for CCc1cc(C#N)cc2c(NCc3ccc(OC)c(Cl)c3)c(CO)cnc12 was 7800
